The values you see were collected from paper PMC10273302.

# experimental-system: T1, influenza A minimal peptide VPNGTLVKTITNDQI (spotted for dot blot) (Influenza A virus (H3 hemagglutinin …))
# T1 chain: VPNGTLVKTITNDQI
measurement-name: binding result

Exercise: Requested field: binding result. Item: clonotype286 (10x_4) (antibody, V domains shown) VH: EVQLVQSGPEVKEPGESLKISCKASGYNFAKYWIAWVRQMPGKGLEWMGIVYPGDSDTRYSPSFQGQVTISADKSLTTAYLQWSSLKASDTAIYYCARGVQDCDSRNCYAYNWFDPWGQGTLVTVSS VL: DIVMTQSPESLAVSLGERATINCKSSHSVFFSSNNKNYLSWYQQKPGQPPKLLIYWASTRQSGVPDRFSGGGSGTDFTLTISSLQAEDVAVYYCQQYYYSPYTFGQGTKLEIK
Solution: binds

Exercise: Requested field: binding result. Item: clonotype3 (10x_4) (antibody, V domains shown) VH: EVQLVQSGAEVKKPGESLKISCKVSGYSFTTYWIAWVRQMPGKGLEWMGIIYPGDSDTRYSPSFQGQVTISADKSVTTAYLQWGSVKASDTAMYYCARPPHFIDAGGRQTPGYFDLWGQGTLVTVSS VL: DIVMTQSPDSLAVSLGERATINCKSSQTVLFRSNNKNYLAWYQQKPGQPPKLLIYWASTRQSGVPDRFSGSGSGTDFTLTISSLQAEDVALYFCQQYHDSPYTFGQGTKVEIK
Solution: binds
